- Assay type: in vivo, human
- RUN PARAMETERS: human, plasma, po, 5 mg
OBSERVABLE: half-life (h)
Note: unit h is implicit; provide only the numeric part.

Input line: Please look at this compound and report its half-life: C[C@@H](N)c1cc(Cl)ccc1Cn1c(=S)[nH]c(=O)c2[nH]ccc21
Output line: 57.8

* * *

- Assay type: in vivo, human
- RUN PARAMETERS: human, urine, po, 5 mg
OBSERVABLE: CL renal (mL/min)
Note: unit mL/min is implicit; provide only the numeric part.

Input line: Please look at this compound and report its CL renal: C[C@@H](N)c1cc(Cl)ccc1Cn1c(=S)[nH]c(=O)c2[nH]ccc21 [Mitiperstat]
Output line: 200
